# EXPERIMENTAL TARGET: chimpanzee Androgen Receptor (AR), AR (gene 747460) (UniProt O97775)
# Sequence (O97775 whole entry, looked up): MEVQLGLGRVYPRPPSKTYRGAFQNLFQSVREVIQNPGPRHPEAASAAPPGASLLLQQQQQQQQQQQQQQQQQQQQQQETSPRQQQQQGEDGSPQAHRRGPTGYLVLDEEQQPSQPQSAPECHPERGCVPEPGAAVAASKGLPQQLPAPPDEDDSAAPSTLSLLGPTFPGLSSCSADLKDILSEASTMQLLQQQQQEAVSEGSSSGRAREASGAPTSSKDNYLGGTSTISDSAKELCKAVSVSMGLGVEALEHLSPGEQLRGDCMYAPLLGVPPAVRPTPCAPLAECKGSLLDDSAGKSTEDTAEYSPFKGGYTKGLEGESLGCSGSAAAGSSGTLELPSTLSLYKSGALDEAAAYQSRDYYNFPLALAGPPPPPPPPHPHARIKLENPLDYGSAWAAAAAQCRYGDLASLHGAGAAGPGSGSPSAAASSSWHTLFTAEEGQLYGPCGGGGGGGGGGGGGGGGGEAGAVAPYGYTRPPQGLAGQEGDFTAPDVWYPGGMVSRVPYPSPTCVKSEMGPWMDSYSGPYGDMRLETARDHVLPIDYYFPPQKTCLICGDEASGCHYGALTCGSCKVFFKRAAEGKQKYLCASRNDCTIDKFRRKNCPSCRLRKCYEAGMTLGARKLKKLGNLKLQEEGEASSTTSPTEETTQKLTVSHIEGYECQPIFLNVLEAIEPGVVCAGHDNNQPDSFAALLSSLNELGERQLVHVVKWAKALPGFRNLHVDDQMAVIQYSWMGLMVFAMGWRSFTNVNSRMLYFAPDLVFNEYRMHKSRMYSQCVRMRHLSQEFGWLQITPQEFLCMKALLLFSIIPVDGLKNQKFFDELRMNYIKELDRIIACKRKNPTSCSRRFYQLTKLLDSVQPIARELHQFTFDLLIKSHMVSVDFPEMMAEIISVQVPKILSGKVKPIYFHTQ
# MEASUREMENT DESCRIPTION: NVS_NR_cAR: NovaScreen (NVS) Nuclear Receptor Binding Assay for chimpanzee Androgen Receptor (AR) (AID 2283346);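 note: radioligand displacement from AR measured by scintillation counting in a cell-free assay; a loss of bound radioligand signal versus DMSO counts as binding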
Results filed as inconclusive are left out. Calls of active or inactive are those of the source. Rule for the calls: active = hit-call score of the fitted dose curve at least 0.9, where 1 is the maximum; inconclusive = response in the unintended direction; inactive = score below 0.9.
Outcomes: active, inactive

CHEMICAL SMILES	CAT
Cc1ccccc1S(N)(=O)=O	active
COC(=O)/C=C\C(=O)OC	inactive
Cc1cc(-n2nc3ccc(Cl)cc3n2)c(O)c(C(C)(C)C)c1	active
CC[N+](CC)(CC(=O)Nc1c(C)cccc1C)Cc1ccccc1	inactive

* * *

# EXPERIMENTAL TARGET: Cellular tumor antigen p53 (Homo sapiens)
# MEASUREMENT DESCRIPTION: TOX21_p53_BLA_p2_ratio: Tox21 HCT-116 p53 Agonism Beta-lactamase Assay, Ratio, Phase 2 (AID 2283592)
Inconclusive results are not listed. Calls of active or inactive are those of the source. How the source made its calls: active means hit-call score of the fitted dose curve at least 0.9, where 1 is the maximum; inconclusive means response in the unintended direction; inactive means score below 0.9.
Classes used: label 1 for active, label 0 for inactive

COMPOUND	CAT
Cc1cccc(C)c1NC(=O)c1ccccc1C(=O)O	label 0
CC[C@H]1OC(=O)[C@H](C)[C@@H](O[C@H]2C[C@@](C)(OC)[C@@H](O)[C@H](C)O2)[C@H](C)[C@@H](O[C@@H]2O[C@H](C)C[C@H](N(C)C)[C@H]2O)[C@](C)(OC)C[C@@H](C)C(=O)[C@H](C)[C@@H](O)[C@]1(C)O	label 0
O=C(O)C(=O)Cc1c[nH]c2ccccc12	label 0
CCOc1ccc2nc3cc(N)ccc3c(N)c2c1	label 1
CN=C(NC#N)NCCSCc1csc(N=C(N)N)n1	label 0
C[n+]1cc2c3c(ccc2c2ccc4cc5c(cc4c21)OCO5)OCO3	label 1
CS(=O)(=O)Nc1cc2occ(NC=O)c(=O)c2cc1Oc1ccccc1	label 0
O=c1[nH]c(=O)c2ccccc2o1	label 0
CCCCCCN	label 0
CCC(=O)c1c(O)cc(O)cc1O	label 0
Cc1ccc2c(Cl)cc(Cl)c(O)c2n1	label 0
O=C1CCC(=O)N1CO	label 0
C[C@@H]1NC(=O)[C@@H](N)CNC(=O)[C@H](C2CCNC(N)=N2)NC(=O)/C(=C/NC(N)=O)NC(=O)[C@H](CNC(=O)C[C@@H](N)CCCN)NC1=O (stereo partly specified)	label 0
CCCc1cc(C(N)=S)ccn1	label 0
Cc1ccsc1C(=CCCN1CCC[C@@H](C(=O)O)C1)c1sccc1C	label 0
CCCCC(CC)CN=C(N)NC(N)=NCCCCCCN=C(N)NC(N)=NCC(CC)CCCC (stereo unspecified)	label 1
O=Cc1ccc([N+](=O)[O-])cc1	label 0
CC1=C(C)C(=O)C(CCCCC#CCCCC#CCO)=C(C)C1=O	label 0
NCCN1CCNC1=O	label 0
NC(=S)NS(=O)(=O)c1ccc(N)cc1	label 0
CC(=O)Nc1ccc(C)cc1	label 0
CCCCC(CC)CN1CN(CC(CC)CCCC)CC(C)(N)C1 (stereo unspecified)	label 0
CSc1cnccn1	label 0
CC(C)Nc1ccccc1	label 0
O=C(O)c1ccc(-n2nc(-c3ccccc3O)nc2-c2ccccc2O)cc1	label 0
CCc1cc(C(N)=S)ccn1	label 0

* * *

# MEASUREMENT DESCRIPTION: TOX21_p53_BLA_p2_viability: Viability Assessment in the Tox21 HCT-116 p53 Agonism Beta-lactamase Assay, Phase 2 (AID 2283591);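 note: compound exposure lasted 16 h at 37 °C; actives lower the ATP signal meaning cytotoxicity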
Inconclusive results are not listed. Calls of active or inactive are those of the source. Rule for the calls: active = hit-call score of the fitted dose curve at least 0.9, where 1 is the maximum; inconclusive = response in the unintended direction; inactive = score below 0.9.
Possible outcomes: class 1 = active, class 0 = inactive

MOLECULE	CAT
CC(=O)OCC(=O)[C@@]12OC3(CCCC3)O[C@@H]1C[C@H]1[C@@H]3CCC4=CC(=O)C=C[C@]4(C)[C@@]3(F)[C@@H](O)C[C@@]12C	class 0
O=S(O)CNc1ccc(S(=O)(=O)c2ccc(NCS(=O)O)cc2)cc1	class 0
O=C(O)c1ccc[n+]([O-])c1	class 0
O=C(CCc1ccc(O)cc1)c1c(O)cc(O)cc1O	class 0
CCCCCCCC/C=C\CCCCCCCC(=O)N(CCO)CCO	class 0
CC1(C)S[C@@H]2[C@H](N=CN3CCCCCC3)C(=O)N2[C@H]1C(=O)O	class 0
C=C(C)C(=O)OCCN(CC)CC	class 0
CCOc1nc2cccc(C(=O)O)c2n1Cc1ccc(-c2ccccc2-c2nn[nH]n2)cc1	class 1
O=C(CCCCCCC(=O)Nc1ccccc1)NO	class 0
COC(=O)C(c1ccccc1Cl)N1CCc2sccc2C1 (stereo not given)	class 0
CC(C)COCC(CN(Cc1ccccc1)c1ccccc1)N1CCCC1 (stereo not given)	class 0
CC(C)Cn1cnc2c(N)nc3ccccc3c21	class 0
CCCCCCCCCCOc1cc2c(=O)c(C(=O)OCC)c[nH]c2cc1OCC	class 0
CCCCOc1ccc(C(=O)CCN2CCCCC2)cc1	class 0
CCn1cc(C(=O)O)c(=O)c2cc(F)c(N3CCNC(C)C3)c(F)c21 (stereo not given)	class 0
COc1ccc(CN2CCN(C(c3ccc(F)cc3)c3ccc(F)cc3)CC2)c(OC)c1OC	class 1
Oc1c(I)cc(I)c2cccnc12	class 1
CC(C(=O)O)c1ccc(N2Cc3ccccc3C2=O)cc1 (stereo not given)	class 0
CC1(C)CC(OC(=O)CCCCCCCCC(=O)OC2CC(C)(C)NC(C)(C)C2)CC(C)(C)N1	class 0
CN(C)c1ccc(C2(c3ccc(N(C)C)cc3)OC(=O)c3cc(N(C)C)ccc32)cc1	class 0
Cc1ccsc1C(=CCCN1CCC[C@@H](C(=O)O)C1)c1sccc1C	class 0
CC(C)[C@H](N)C(=O)OCCOCn1cnc2c(=O)[nH]c(N)nc21	class 0
CC(C)c1ccc2oc3nc(N)c(C(=O)O)cc3c(=O)c2c1	class 0
O=C(O)c1ccc(CO)o1	class 0
CC(C)COC(=O)c1ccc(N)cc1	class 0
COC(=O)C1=C(C)NC(C)=C(C(=O)OCCN2CCN(C(c3ccccc3)c3ccccc3)CC2)C1c1cccc([N+](=O)[O-])c1 (stereo not given)	class 0
CC(C)(C)OCC1CO1 (stereo not given)	class 0
OCCN1CCN(CC/C=C2/c3ccccc3Sc3ccc(Cl)cc32)CC1	class 0
CCOC(=O)[C@H](CCc1ccccc1)N[C@@H](C)C(=O)N1CCC[C@H]1C(=O)O	class 0
Cc1c(NC(C)C)c(=O)n(-c2ccccc2)n1C	class 0
CN(C)CCc1c[nH]c2ccc(CS(=O)(=O)N3CCCC3)cc12	class 0
CC[C@H]1OC(=O)[C@H](C)C(=O)[C@H](C)[C@@H](O[C@@H]2O[C@H](C)C[C@H](N(C)C)[C@H]2O)[C@](C)(OC)C[C@@H](C)C(=O)[C@H](C)[C@H]2N(CCCCn3cnc(-c4cccnc4)c3)C(=O)O[C@]12C	class 0
C[S+](C)CCC(N)C(=O)O (stereo not given)	class 0
CCN(CC)CCCN(c1ccccc1)C1Cc2ccccc2C1	class 1
COc1cccc(O)c1O	class 0
Cc1cc2c(OCC(CNC(C)(C)C)OC(=O)c3ccccc3)cccc2[nH]1 (stereo not given)	class 0
CCN(Cc1ccccc1)c1ccccc1	class 0
Cc1cc(NS(=O)(=O)c2ccc(N)cc2)nc(C)n1	class 0
CC(C)(Sc1cc(C(C)(C)C)c(O)c(C(C)(C)C)c1)Sc1cc(C(C)(C)C)c(O)c(C(C)(C)C)c1	class 0
CCC(=O)C=CC1C(C)=CCCC1(C)C (stereo not given)	class 0
O=C1c2ccccc2C(=O)C1c1ccc(Cl)cc1	class 0
CC(C)NNC(=O)c1ccncc1	class 0
NC(=O)c1ncn([C@@H]2O[C@H](CO)[C@@H](O)[C@H]2O)c1O	class 0
CCCCCCCCCCCCCCCBr	class 0
CC1=NN(c2cc(Cl)c(S(=O)(=O)O)cc2Cl)C(=O)C1N=Nc1ccc(S(=O)(=O)O)cc1 (stereo not given)	class 0
